Target: sigma-1 receptor (S1R) (Cavia porcellus, UniProt Q60492)
Construct: Guinea pig liver tissue preparation abundantly contains sigma-1 receptor as compared to other tissues; from tissue; host or cells: guinea pig liver membrane homogenate
Sequence (Q60492 whole entry): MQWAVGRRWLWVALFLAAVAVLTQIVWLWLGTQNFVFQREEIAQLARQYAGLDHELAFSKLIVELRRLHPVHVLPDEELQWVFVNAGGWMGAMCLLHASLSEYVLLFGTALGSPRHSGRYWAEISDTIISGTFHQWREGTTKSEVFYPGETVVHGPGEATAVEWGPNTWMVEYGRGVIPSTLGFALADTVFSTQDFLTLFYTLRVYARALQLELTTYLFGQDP
Test: Sigma-1 receptor competitive radioligand binding assay with [3H](+)-pentazocine in guinea pig liver membranes
Details: read-out: Measured Ki
pKi: −log10 of the molar value.
Form field: pKi (one value per entry).
measurement-name: pKi

>  <compound>
NN1C(=O)C2C3C=CC(C3)C2NC12CCN(Cc1ccccc1)CC2 (racemic)

>  <result>
6.33

$$$$
>  <compound>
Cl.NC(CC(=O)NCc1cc(F)cc(C(F)(F)F)c1)c1ccccc1 (centres unmarked)

>  <result>
6.38

$$$$
>  <compound>
COc1cc2c(cc1OC)C(CCNCc1ccccc1)NCC2 (centres unmarked)

>  <result>
7.49

$$$$
>  <compound>
O=C(NCC1NCCc2c1[nH]c1ccccc21)OCc1ccccc1 (centres unmarked)

>  <result>
5.77

$$$$
>  <compound>
Cn1c2c(c3ccccc31)CCNC2CNC(=O)OCc1ccccc1 (centres unmarked)

>  <result>
5.98

$$$$
>  <compound>
CCOc1cc2c(cc1OCC)[C@H]1[C@H](CSc3ccc(Cl)cc3)CN1CC2 (relative stereo)

>  <result>
5.49

$$$$
>  <compound>
CCOc1cc2c(cc1OCC)[C@H]1CCN[C@@H](c3ccc(N(C)C)cc3)N1CC2 (relative stereo)

>  <result>
5.67

$$$$
>  <compound>
CC(CN)C(=O)NCc1cccc(C(F)(F)F)c1F (centres unmarked)

>  <result>
5.81

$$$$
>  <compound>
NC(CC(=O)NCc1cccc(C(F)(F)F)c1F)c1ccccc1 (centres unmarked)

>  <result>
7.04

$$$$
>  <compound>
CC1(C)C2CC(O)C(O)(CNCc3ccccc3)CC21 (centres unmarked)

>  <result>
5.86

$$$$
>  <compound>
COc1ccc(OCC(O)CN2CCc3ccccc3C2)cc1 (centres unmarked)

>  <result>
6.96

$$$$

---

Molecular target: sigma-1 receptor (S1R) (Cavia porcellus)
Construct: Guinea pig liver tissue preparation abundantly contains sigma-1 receptor as compared to other tissues; from tissue; host or cells: guinea pig liver membrane homogenate
Test: Sigma-1 receptor competitive radioligand binding assay with [3H](+)-pentazocine in guinea pig liver membranes
Details: read-out: S1R Ki ± S.E.M.
pKi: −log10 of the molar value.

>  <molecule>
COCCCC/C(=N\OCCN)c1ccc(C(F)(F)F)cc1 [fluvoxamine, reference compound]

>  <pKi>
7.51

$$$$
